Sourced from the EternaBench riboswitch data

# Tested on: MS2 coat protein
# protocol text: apparent Kd, MS2 coat protein; higher = weaker binding; RNA-MaP array; FMN 200 µM where present
# stated conditions: ligand present: flavin mononucleotide; designed as: OFF switch for flavin mononucleotide
Outcome: TRUE for apparent Kd of at least 60 nM; FALSE for anything lower.

Query: Test whether the sequence GCAGGAUAAGUGAGGAUAUACCUAUGGAUACAUAGGUAGAAGGCACAUGAGGAUCACCCAUGUUCCUUGCCUGC records apparent Kd of 60 nM or higher.
Reply: FALSE

Query: Reported apparent Kd at or above 60 nM? UGAGCUACAGGAUAUACGUGACGACCGUGAGGUCGAAGGUUACAUGAGGAUCACCCAUGUAGAAGGGUAGUUCU
Reply: TRUE

Query: Decide: is the reported value of apparent Kd for GUAAUUAAGAGAGGAUAUUGACAUGAGGAUCACCCAUGUAUUUGGGAGUGUUUACUGAAUUCUUACGAGAAGGCUUUUAAAUAC equal to or greater than 60 nM?
Reply: TRUE

Query: Is the recorded value of apparent Kd equal to or greater than 60 nM for this sequence? ACAUGAGGAUCACCCAUGUGAGGAUCUCCCAUGUUAUAUUUCAGAAGGCUCGUGUGUUUGAUGAGAGAGGAUAUGGAAUAUACG
Reply: FALSE

Query: Decide: is the reported value of apparent Kd for UGAUCUAUGUAGAAGGCCCAUAUCUAUAUUUAGGGAGGAUAUACAUGAGGAUCACCCAUGUAUAGAGCUAGUGGACUAGUCACC equal to or greater than 60 nM?
Reply: FALSE
